These measurements were taken from PubChem BioAssay (NCI).

growth for assorted compounds
system: SNB-19 CNS; test: NCI-60 one-dose screen, 48 h (100 = growth as untreated, 0 = no growth, -100 = all killed); details: 10 µM unless noted
Compounds without any hit were thinned out: in the full panel of roughly 83,000, 20% have a hit.
reported-endpoint: growth (%)

INSERT INTO measurements (compound, reported_endpoint, u, observed_value) VALUES
  ('CC1(c2ccc3ccccc3c2)CCC(=O)O1 (stereo not drawn)', 'growth', '%', 106),
  ('Fc1ccccc1Nc1n[nH]c(=S)s1', 'growth', '%', 104),
  ('NC(=S)N/N=C(\c1ccc(Br)cc1)C1CC1', 'growth', '%', 108),
  ('NC(=S)NS(=O)(=O)c1ccc(N)cc1', 'growth', '%', 113),
  ('CC1=NN(c2ccccc2)C(=O)C1C(=O)c1ccccc1 (stereo not drawn)', 'growth', '%', 95.1),
  ('C1CCCCNCCC1', 'growth', '%', 110),
  ('CCCCCCCCCCCCOc1ccccc1C=O', 'growth', '%', 98.4),
  ('CC(=O)C(/C=N/C(N)=O)=C(/C)O', 'growth', '%', 103),
  ('O=[N+]([O-])c1ccc(-n2[nH]nnc2=S)cc1', 'growth', '%', 98.1),
  ('Nc1ccc2[nH]c(-c3ccccc3)cc(=O)c2c1', 'growth', '%', 88.7),
  ('CC(/C=N/N1C(=O)c2ccccc2C1=O)c1ccccc1 (stereo not drawn)', 'growth', '%', 95.9),
  ('Nc1ccc2ccc(N)cc2c1', 'growth', '%', 96.1),
  ('O=[N+]([O-])c1ccc2nc3c4ccccc4c4ccccc4c3nc2c1', 'growth', '%', 89.2),
  ('CCOC(=O)C(CNc1ccccc1)C(=O)OCC', 'growth', '%', 91.2),
  ('CC(=O)NC(Cc1ccccc1)C(=O)Oc1ccc2ccccc2c1 (stereo not drawn)', 'growth', '%', 113),
  ('CCOc1ccc2nc3cc(N)ccc3c(N)c2c1', 'growth', '%', 10.5),
  ('CC1=C(/C=C/C(C)=C/C=C/C(C)=C/C(=O)Nc2ccc(O)cc2)C(C)(C)CCC1', 'growth', '%', 80.2),
  ('S=C1SCN(Cc2ccccc2)CN1Cc1ccccc1', 'growth', '%', 96.4),
  ('Nc1ccccc1SC1CC(=O)N(c2cccc3ccccc23)C1=O (stereo not drawn)', 'growth', '%', 96.7),
  ('COc1ccc2ccccc2c1/C=N/N1CCCCC1', 'growth', '%', 88.1),
  ('N=C1N=C(N)CS1', 'growth', '%', 104),
  ('Cc1c(Cl)cccc1NCN1C(=O)c2ccccc2C1=O', 'growth', '%', 110),
  ('Oc1ccccc1C=NCC1CCC(CN=Cc2ccccc2O)CC1 (stereo not drawn)', 'growth', '%', 94.6),
  ('COc1cc(C(=O)N/N=C/c2ccc(N(C)C)cc2)cc(OC)c1OC', 'growth', '%', 53.3),
  ('Cc1ccc2nc3c(nc2c1)-c1cccc2cccc-3c12', 'growth', '%', 100),
  ('Nc1n[nH]c(=S)n1-c1ccc(Cl)cc1', 'growth', '%', 99.4),
  ('O=C(O)CSCc1nc2ccccc2[nH]1', 'growth', '%', 97.4),
  ('CC1CCCC(=O)O1 (stereo not drawn)', 'growth', '%', 111);
